Cited source: patent US7244430

target: T1, West Nile virus strain USA99b (strain 385-99) (West Nile virus strain 385-99 (USA99b)); test: phage ELISA, coated whole inactivated WNV
T1 construct: mature; also called WNV; WN virus
measured attribute: OD 492 nm (OD 492 nm)
State the answer as a number, implicitly in OD 492 nm.

query: # query: OD 492 nm of entry SC04-271 (scFv) scFv: EVQLVETGAEVKKPGESLRISCKGSGYTFNNYWIGWVRQMPGKGLEWMGIIYPGDSDTRYSPSVQGHVTISADKSINTAYLQWSSLKASDTAVYYCARRPGYDYGFYYFDYWGQGTLVTVSSGTGGSGGTGSGTGGSTQSALTQPRSVSGSPGQSVTISCTGTSSDVGGYNYVSWYQHHPGKAPKLMIYDVSNRPLGVSNRFSGSKSGNTASLTISGLQAEDEADYYCSSYTSSSTYVFGTGTHLTVLS
result: 0.984
